The entries below are paired with their reported binary diffusion coefficient.
assay: xn = mol fraction of the nth substance listed; settings: 298.15 K; 101.3 kPa; Liquid; Taylor dispersion method; x2 = 0.5

compound: C1CCCCC1 [cyclohexane] + CCO
binary diffusion coefficient / m2/s: 4.6e-10

compound: ClC(Cl)(Cl)Cl [tetrachloromethane] + CCCO
binary diffusion coefficient / m2/s: 4.6e-10

compound: ClC(Cl)(Cl)Cl [tetrachloromethane] + CCCCO
binary diffusion coefficient / m2/s: 3.2e-10

compound: CCCCCC [hexane] + CCCO
binary diffusion coefficient / m2/s: 1.15e-09

compound: C1CCCCC1 [cyclohexane] + CCCO
binary diffusion coefficient / m2/s: 4.2e-10

compound: Cc1ccccc1 [toluene] + CCCO
binary diffusion coefficient / m2/s: 8.5e-10

compound: CCCCCC [hexane] + CCO
binary diffusion coefficient / m2/s: 1.3e-09

compound: ClC(Cl)(Cl)Cl [tetrachloromethane] + CCO
binary diffusion coefficient / m2/s: 7.3e-10

compound: Cc1ccccc1 [toluene] + CCO
binary diffusion coefficient / m2/s: 9.8e-10

###

test: xn = mol fraction of the nth substance listed; settings: 298.15 K; 101.3 kPa; Liquid; Taylor dispersion method; x2 = 0.7

compound: C1CCCCC1 [cyclohexane] + CCCO
binary diffusion coefficient, m2/s: 6.5e-10

compound: ClC(Cl)(Cl)Cl [tetrachloromethane] + CCCCO
binary diffusion coefficient, m2/s: 5.4e-10

compound: ClC(Cl)(Cl)Cl [tetrachloromethane] + CCCO
binary diffusion coefficient, m2/s: 6.6e-10

compound: CCCCCC [hexane] + CCO
binary diffusion coefficient, m2/s: 1.3e-09

compound: CCCCCC [hexane] + CCCO
binary diffusion coefficient, m2/s: 1.08e-09

compound: Cc1ccccc1 [toluene] + CCO
binary diffusion coefficient, m2/s: 1.16e-09

compound: ClC(Cl)(Cl)Cl [tetrachloromethane] + CCO
binary diffusion coefficient, m2/s: 9.9e-10

compound: Cc1ccccc1 [toluene] + CCCO
binary diffusion coefficient, m2/s: 1.01e-09

compound: C1CCCCC1 [cyclohexane] + CCO
binary diffusion coefficient, m2/s: 7.3e-10

###

assay: xn = mol fraction of the nth substance listed; settings: 298.15 K; 101.3 kPa; Liquid; Taylor dispersion method; x2 = 0.97
Catalogue of binary diffusion coefficient values
measurement-type: binary diffusion coefficient

compound: CCCCCC [hexane] + CCO
measured-result: 1.54e-09 m2/s
--
compound: ClC(Cl)(Cl)Cl [tetrachloromethane] + CCCCO
measured-result: 6.9e-10 m2/s
--
compound: Cc1ccccc1 [toluene] + CCO
measured-result: 1.7e-09 m2/s
--
compound: C1CCCCC1 [cyclohexane] + CCCO
measured-result: 1.15e-09 m2/s
--
compound: ClC(Cl)(Cl)Cl [tetrachloromethane] + CCCO
measured-result: 9.1e-10 m2/s
--
compound: ClC(Cl)(Cl)Cl [tetrachloromethane] + CCO
measured-result: 1.43e-09 m2/s
--
compound: Cc1ccccc1 [toluene] + CCCO
measured-result: 1.4e-09 m2/s
--
compound: C1CCCCC1 [cyclohexane] + CCO
measured-result: 1.41e-09 m2/s
--
compound: CCCCCC [hexane] + CCCO
measured-result: 1.03e-09 m2/s
